- ASSAY SYSTEM: human CRTH2 (Homo sapiens)
- PROCEDURE TEXT: Human CRTH2 Receptor Binding Assay (whole cell, [3H]ramatroban competition)
- CONDITION NOTES: CHO-K1 cells stably expressing human CRTH2 and G-alpha16; 20 nM [3H]ramatroban; 1 hour, room temperature
READOUT KIND: pIC50
A value of pIC50 is the negative decimal logarithm of a concentration given in moles per litre.

Request: For the compound shown here, CC(C)Oc1cc(C(F)(F)F)cc(S(=O)(=O)NC2CCCc3c2cnn3CC(=O)O)c1 (stereo not shown) , give the reported pIC50.
Result: 6.71

Request: For the compound shown here, CC(C)N(C)c1cc(C(F)(F)F)cc(S(=O)(=O)N(C)[C@@H]2CCCc3c2cnn3CC(=O)O)c1 , give the reported pIC50.
Result: 7.34

Request: For the compound shown here, O=C(O)Cn1ncc2c1CCC[C@H]2NS(=O)(=O)c1cc(C(F)(F)F)cc(S(=O)(=O)C2CCCC2)c1 , give the reported pIC50.
Result: 8.54

Request: For the compound shown here, O=C(O)Cn1ncc2c1CCCC2NS(=O)(=O)c1ccc(Br)c(C(F)(F)F)c1 (stereo not shown) [Example 1-10a] , give the reported pIC50.
Result: 6.92

Request: For the compound shown here, CN([C@@H]1CCCc2c1cnn2CC(=O)O)S(=O)(=O)c1cc(C2CC2)cc(C(F)(F)F)c1 , give the reported pIC50.
Result: 7.79

Request: For the compound shown here, Cc1ccc(S(=O)(=O)NC2CCCc3c2cnn3CC(=O)O)cc1[N+](=O)[O-] (stereo not shown) , give the reported pIC50.
Result: 6.65

Continuing:
Request: For the compound shown here, CN([C@@H]1CCCc2c1cnn2CC(=O)O)S(=O)(=O)c1ccc(C(F)(F)F)cc1Cl , give the reported pIC50.
Result: 7.10

====

- ASSAY SYSTEM: human CRTH2 (Homo sapiens, UniProt Q9Y5Y4)
- Sequence (Q9Y5Y4 whole entry): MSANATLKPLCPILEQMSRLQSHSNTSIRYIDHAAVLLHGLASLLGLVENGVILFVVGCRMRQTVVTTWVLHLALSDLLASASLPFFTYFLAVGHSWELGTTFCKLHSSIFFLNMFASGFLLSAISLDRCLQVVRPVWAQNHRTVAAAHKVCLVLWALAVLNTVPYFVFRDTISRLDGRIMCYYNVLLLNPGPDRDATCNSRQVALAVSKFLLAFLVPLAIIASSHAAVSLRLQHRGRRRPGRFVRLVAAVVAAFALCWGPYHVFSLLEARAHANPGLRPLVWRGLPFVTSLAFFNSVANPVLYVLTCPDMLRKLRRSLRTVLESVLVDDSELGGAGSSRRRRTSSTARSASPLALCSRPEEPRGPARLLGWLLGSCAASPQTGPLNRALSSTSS
- PROCEDURE TEXT: Human CRTH2 Receptor Binding Assay (whole cell, [3H]ramatroban competition)
- CONDITION NOTES: CHO-K1 cells stably expressing human CRTH2 and G-alpha16; 20 nM [3H]ramatroban; 1 hour, room temperature
Reported values of IC50 for individual entries
Entry rule: numbers only, all in nM.

Example cases with answers are listed next.
Request: For the molecule shown here, Cc1cc(C)cc(S(=O)(=O)NC2CCCc3c2cnn3CC(=O)O)c1 (stereo not shown) [Example 1-6a] , give the reported IC50.
Result: 397

Request: For the molecule shown here, Cc1ccc(S(=O)(=O)NC2CCCc3c2cnn3CC(=O)O)cc1Cl (stereo not shown) [Example 1-17a] , give the reported IC50.
Result: 381

Request: For the molecule shown here, Cc1cc(S(=O)(=O)NC2CCCc3c2cnn3CC(=O)O)ccc1Br (stereo not shown) [Example 1-9a] , give the reported IC50.
Result: 277

Alright, here's another molecule for you.
Request: For the molecule shown here, CS(=O)(=O)c1cc(S(C)(=O)=O)cc(S(=O)(=O)N[C@@H]2CCCc3c2cnn3CC(=O)O)c1 [Example 1-16a] , give the reported IC50.
Result: 5.9

====

- ASSAY SYSTEM: human CRTH2 (Homo sapiens)
- PROCEDURE TEXT: Human CRTH2 Receptor Binding Assay (whole cell, [3H]ramatroban competition)
- CONDITION NOTES: CHO-K1 cells stably expressing human CRTH2 and G-alpha16; 20 nM [3H]ramatroban; 1 hour, room temperature
Reported values of IC50 for individual entries
Entry rule: numbers only, all in nM.

Example cases with answers are listed next.
Request: Form: Entry = CN([C@@H]1CCCc2c1cnn2CC(=O)O)S(=O)(=O)c1cc(C(F)(F)F)cc(C(F)(F)F)c1 | System = human CRTH2 (Homo sapiens) | IC50 = ____
Result: 12.1

Request: Form: Entry = CN([C@@H]1CCCc2c1cnn2CC(=O)O)S(=O)(=O)c1cc(C(F)(F)F)cc(C2(C)CC2)c1 | System = human CRTH2 (Homo sapiens) | IC50 = ____
Result: 6.2

Request: Form: Entry = O=C(O)Cn1ncc2c1CCC[C@H]2NS(=O)(=O)c1cc(C(F)(F)F)cc(C(F)(F)F)c1 | System = human CRTH2 (Homo sapiens) | IC50 = ____
Result: 16.4

Request: Form: Entry = O=C(O)Cn1ncc2c1CCC[C@H]2NS(=O)(=O)c1cc(Br)cc(C(F)(F)F)c1 | System = human CRTH2 (Homo sapiens) | IC50 = ____
Result: 13

Request: Form: Entry = CC1(c2cc(C(F)(F)F)cc(S(=O)(=O)N[C@@H]3CCCc4c3cnn4CC(=O)O)c2)CC1 | System = human CRTH2 (Homo sapiens) | IC50 = ____
Result: 7.8

Continuing:
Request: Form: Entry = CCC1(c2cc(C(F)(F)F)cc(S(=O)(=O)N(C)[C@@H]3CCCc4c3cnn4CC(=O)O)c2)CC1 | System = human CRTH2 (Homo sapiens) | IC50 = ____
Result: 12.3

Request: Form: Entry = CC(C)c1cc(C(F)(F)F)cc(S(=O)(=O)N(C)[C@@H]2CCCc3c2cnn3CC(=O)O)c1 | System = human CRTH2 (Homo sapiens) | IC50 = ____
Result: 7.3

Request: Form: Entry = CCN(CC)c1cc(C(F)(F)F)cc(S(=O)(=O)N(C)[C@@H]2CCCc3c2cnn3CC(=O)O)c1 | System = human CRTH2 (Homo sapiens) | IC50 = ____
Result: 146

Request: Form: Entry = CN([C@@H]1CCCc2c1cnn2CC(=O)O)S(=O)(=O)c1ccc(OC2CCCC2)c(Cl)c1 | System = human CRTH2 (Homo sapiens) | IC50 = ____
Result: 99.2

Request: Form: Entry = CC(=O)Nc1cccc(S(=O)(=O)NC2CCCc3c2cnn3CC(=O)O)c1 (stereo not shown) | System = human CRTH2 (Homo sapiens) | IC50 = ____
Result: 80.1

Request: Form: Entry = CCOc1cc(C(F)(F)F)cc(S(=O)(=O)NC2CCCc3c2cnn3CC(=O)O)c1 (stereo not shown) | System = human CRTH2 (Homo sapiens) | IC50 = ____
Result: 145

Request: Form: Entry = O=C(O)Cn1ncc2c1CCCC2NS(=O)(=O)c1cnc(OC2CCCC2)c(Br)c1 (stereo not shown) | System = human CRTH2 (Homo sapiens) | IC50 = ____
Result: 10.3

Request: Form: Entry = CN([C@@H]1CCCc2c1cnn2CC(=O)O)S(=O)(=O)c1cc(SC2CCCC2)cc(C(F)(F)F)c1 | System = human CRTH2 (Homo sapiens) | IC50 = ____
Result: 12.6
